test system: Staphylococcus aureus 447; test: broth micro-dilution MIC; type: cell-based
Catalogue of MIC values
Give the number; µg/mL is assumed, so skip it.

molecule	MIC, µg/mL
C=CCCCCNC1(C)CC(OC2C(Oc3c4cc5cc3Oc3ccc(cc3Cl)C(OC3CC(C)(N)C(O)C(C)O3)C3NC(=O)C(NC(=O)C5NC(=O)C(CC(N)=O)NC(=O)C(NC(=O)C(CC(C)C)NC)C(O)c5ccc(c(Cl)c5)O4)c4ccc(O)c(c4)-c4c(O)cc(O)cc4C(C(=O)O)NC3=O)OC(CO)C(O)C2O)OC(C)C1O (centres unmarked)	1

# context switch: different molecule, same MIC
INPUT: I'd like to know its MIC. The molecule in question is CCN(CC)CCOc1ccc(CNC2(C)CC(OC3C(Oc4c5cc6cc4Oc4ccc(cc4Cl)C(OC4CC(C)(N)C(O)C(C)O4)C4NC(=O)C(NC(=O)C6NC(=O)C(CC(N)=O)NC(=O)C(NC(=O)C(CC(C)C)NC)C(O)c6ccc(c(Cl)c6)O5)c5ccc(O)c(c5)-c5c(O)cc(O)cc5C(C(=O)O)NC4=O)OC(CO)C(O)C3O)OC(C)C2O)cc1 (centres unmarked)
OUTPUT: 2
